These data points were gathered from patent US11987648B2.

Measured EC50, listed per entry.
- experimental-target: SST5 (Homo sapiens)
- Sequence (P35346 whole entry): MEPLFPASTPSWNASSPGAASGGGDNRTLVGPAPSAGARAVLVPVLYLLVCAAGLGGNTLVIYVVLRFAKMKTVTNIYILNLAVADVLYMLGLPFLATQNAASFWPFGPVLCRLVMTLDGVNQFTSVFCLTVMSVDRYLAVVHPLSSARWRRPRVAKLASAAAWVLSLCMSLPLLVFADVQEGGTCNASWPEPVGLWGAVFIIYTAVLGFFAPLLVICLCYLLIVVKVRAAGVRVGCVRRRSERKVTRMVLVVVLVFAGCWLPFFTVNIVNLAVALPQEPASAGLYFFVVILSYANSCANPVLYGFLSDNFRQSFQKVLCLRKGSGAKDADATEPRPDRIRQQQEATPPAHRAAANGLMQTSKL
- assay-name: Hit Hunter cAMP XS+ assay, SST5 activation via Gi (reduction of forskolin-stimulated cAMP)
- Assay type: cell-based
- condition-notes: reduction of forskolin-stimulated cAMP; 4-parameter logistic fit; read-out: SST5 pEC50 (converted)
*1 amine or outer side, *2 acyl side, *3 side chain or, on linkers, in order; H or OH if unused. Where a SMILES comes first, the peptide text is derived from it. Side-chain parts run from the residue outwards. [ ]: non-standard residue; d: D form. The star is where a group is joined. Ala(piperidin-4-yl) = O=C([C@H](CC1CCN([*:3])CC1)N[*:1])[*:2]; X2 = O=C([C@@H]1C[C@@H](Oc2ccncc2)CN1[*:1])[*:2]; Ala(piperazin-1-yl) = N[C@@H](CN1CCNCC1)C(=O)O; Ethylenediamine = C(CN[*:2])N[*:1]; Hyp = O=C(O)[C@@H]1C[C@@H](O)CN1; hPhe = N[C@@H](CCc1ccccc1)C(=O)O; 3Pal = N[C@@H](Cc1cccnc1)C(=O)O; Cyclohexylmethyl = C1CCC(C*)CC1; Tic = O=C(O)[C@@H]1Cc2ccccc2CN1; X9 = O=C(C1CNCCN1[*:1])[*:2]; CO = O=C([*:1])[*:2]; Bn = c1ccc(C*)cc1
# output: bare number, implied unit nM

# annotated cases, reported EC50 shown
{"molecule": "O=C1N[C@@H](Cc2ccc(OCc3ccccc3)cc2)C(=O)N[C@@H](Cc2cccnc2)C(=O)N2C[C@H](Oc3ccncc3)C[C@H]2C(=O)N[C@@H](CCc2ccccc2)C(=O)N[C@@H](Cc2c[nH]c3ccccc23)C(=O)N[C@H]1CC1CCNCC1 [Example 23] (cyclo([3Pal][X2][hPhe]W[Ala(piperidin-4-yl)]Y(Bn)))", "experimental-target": "SST5 (Homo sapiens)", "result-value": 3.98}
{"molecule": "NCCNC(=O)O[C@@H]1C[C@H]2C(=O)N[C@@H](CCc3ccccc3)C(=O)N[C@H](Cc3c[nH]c4ccccc34)C(=O)N[C@@H](CC3CCNCC3)C(=O)N[C@@H](Cc3ccc(OCC4CCCCC4)cc3)C(=O)N[C@@H](Cc3cccnc3)C(=O)N2C1 [Example 54] (cyclo([3Pal][Hyp]([CO-Ethylenediamine])[hPhe][dW][Ala(piperidin-4-yl)]Y(Cyclohexylmethyl)))", "experimental-target": "SST5 (Homo sapiens)", "result-value": 0.501}

IN: For O=C1N[C@@H](CCc2ccccc2)C(=O)N[C@H](Cc2c[nH]c3ccccc23)C(=O)N[C@@H](CN2CCNCC2)C(=O)N[C@@H](Cc2ccc(OCc3ccccc3)cc2)C(=O)N2Cc3ccccc3C[C@H]2C(=O)N2CCNCC12 (stereo partly drawn) [Example 65] (cyclo([Tic][X9][hPhe][dW][Ala(piperazin-1-yl)]Y(Bn))) , what is its reported EC50?
OUT: 0.398

---

Overview of recorded Emax for various compounds
- experimental-target: UniProtKB P30874
- Sequence (P30874 whole entry): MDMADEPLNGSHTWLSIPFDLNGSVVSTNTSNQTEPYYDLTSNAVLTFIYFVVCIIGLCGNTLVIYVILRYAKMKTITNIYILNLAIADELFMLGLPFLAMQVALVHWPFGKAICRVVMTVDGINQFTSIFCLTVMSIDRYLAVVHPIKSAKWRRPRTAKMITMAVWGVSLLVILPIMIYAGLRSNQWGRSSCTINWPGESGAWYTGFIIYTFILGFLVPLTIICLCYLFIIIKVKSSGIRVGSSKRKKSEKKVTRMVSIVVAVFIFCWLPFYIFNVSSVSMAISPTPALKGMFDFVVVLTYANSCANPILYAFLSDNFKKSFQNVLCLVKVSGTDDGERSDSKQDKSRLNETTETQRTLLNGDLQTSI
- assay-name: Hit Hunter cAMP XS+ assay, SST2 activation via Gi (reduction of forskolin-stimulated cAMP)
- Type: cell-based
- condition-notes: read-out: SST2 (EMax)
*1 amine or outer side, *2 acyl side, *3 side chain or, on linkers, in order; H or OH if unused. Where a SMILES comes first, the peptide text is derived from it. Side-chain parts run from the residue outwards. [ ]: non-standard residue; d: D form. The star is where a group is joined. Ala(piperidin-4-yl) = O=C([C@H](CC1CCN([*:3])CC1)N[*:1])[*:2]; dTrp(4-OMe) = COc1cccc2[nH]cc(C[C@@H](N)C(=O)O)c12; dTrp(5-OMe) = COc1ccc2[nH]cc(C[C@@H](N)C(=O)O)c2c1; Ala(piperazin-1-yl) = N[C@@H](CN1CCNCC1)C(=O)O; Morpholine(3S-CO) = O=C(O)[C@@H]1COCCN1; Ethylenediamine = C(CN[*:2])N[*:1]; d(hPhe) = N[C@H](CCc1ccccc1)C(=O)O; Hyp = O=C(O)[C@@H]1C[C@@H](O)CN1; Pip(4-aza) = O=C(O)[C@@H]1CNCCN1; hPhe = N[C@@H](CCc1ccccc1)C(=O)O; 3Pal = N[C@@H](Cc1cccnc1)C(=O)O; Tic = O=C(O)[C@@H]1Cc2ccccc2CN1; Phg = N[C@H](C(=O)O)c1ccccc1; X9 = O=C(C1CNCCN1[*:1])[*:2]; X3 = CN[C@H]1CCN(*)C1; X6 = Clc1cccc(Cl)c1C*; CO = O=C([*:1])[*:2]; Bn = c1ccc(C*)cc1
Report the figure in % without appending any unit label.

{"compound": "O=C1N[C@@H](Cc2ccc(OCc3ccccc3)cc2)C(=O)N2Cc3ccccc3C[C@H]2C(=O)N2CCNC[C@H]2C(=O)N[C@@H](CCc2ccccc2)C(=O)N[C@H](Cc2c[nH]c3ccccc23)C(=O)N[C@H]1CC1CCNCC1 [Example 73] (cyclo([Tic][Pip(4-aza)][hPhe][dW][Ala(piperidin-4-yl)]Y(Bn)))", "unit-label": "%", "result-value": 99.2}
{"compound": "NCCCC[C@@H]1NC(=O)[C@@H](Cc2c[nH]c3ccccc23)NC(=O)[C@H](c2ccccc2)NC(=O)[C@@H]2C[C@@H](OC(=O)NCCN)CN2C(=O)[C@H](Cc2ccccc2)NC(=O)[C@H](Cc2ccc(OCc3ccccc3)cc2)NC1=O [pasireotide, reference compound] (cyclo([Hyp]([CO-Ethylenediamine])[Phg][dW]KY(Bn)F))", "unit-label": "%", "result-value": 100}
{"compound": "NCCNC(=O)O[C@@H]1C[C@H]2C(=O)N[C@@H](CCc3ccccc3)C(=O)N[C@H](Cc3c[nH]c4ccccc34)C(=O)N[C@@H](CC3CCNCC3)C(=O)N[C@@H](Cc3ccc(OCc4ccccc4)cc3)C(=O)N3Cc4ccccc4C[C@H]3C(=O)N2C1 [Example 17] (cyclo([Hyp]([CO-Ethylenediamine])[hPhe][dW][Ala(piperidin-4-yl)]Y(Bn)[Tic]))", "unit-label": "%", "result-value": 97.3}
{"compound": "NCCNC(=O)O[C@@H]1C[C@H]2C(=O)N[C@@H](CCc3ccccc3)C(=O)N[C@H](Cc3c[nH]c4ccccc34)C(=O)N[C@@H](CC3CCNCC3)C(=O)N[C@@H](Cc3ccc(OCc4c(Cl)cccc4Cl)cc3)C(=O)N[C@@H](Cc3cccnc3)C(=O)N2C1 [Example 47] (cyclo([3Pal][Hyp]([CO-Ethylenediamine])[hPhe][dW][Ala(piperidin-4-yl)]Y(X6)))", "unit-label": "%", "result-value": 100}
{"compound": "COc1cccc2[nH]cc(C[C@H]3NC(=O)[C@@H](CCc4ccccc4)NC(=O)[C@@H]4COCCN4C(=O)[C@@H]4Cc5ccccc5CN4C(=O)[C@H](Cc4ccc(OCc5ccccc5)cc4)NC(=O)[C@H](CN4CCNCC4)NC3=O)c12 [Example 63] (cyclo([Tic][Morpholine(3S-CO)][d(hPhe)][dTrp(4-OMe)][Ala(piperazin-1-yl)]Y(Bn)))", "unit-label": "%", "result-value": 102}
{"compound": "COc1ccc2[nH]cc(C[C@H]3NC(=O)[C@H](CCc4ccccc4)NC(=O)[C@@H]4C[C@@H](OC(=O)NCCN)CN4C(=O)[C@H](Cc4cccnc4)NC(=O)[C@H](Cc4ccc(OCc5ccccc5)cc4)NC(=O)[C@H](CC4CCNCC4)NC3=O)c2c1 [Example 39] (cyclo([3Pal][Hyp]([CO-Ethylenediamine])[hPhe][dTrp(5-OMe)][Ala(piperidin-4-yl)]Y(Bn)))", "unit-label": "%", "result-value": 100}

IN: Look up Emax for this compound: CN[C@H]1CCN(C(=O)O[C@@H]2C[C@H]3C(=O)N[C@@H](CCc4ccccc4)C(=O)N[C@H](Cc4c[nH]c5ccccc45)C(=O)N[C@@H](CC4CCNCC4)C(=O)N[C@@H](Cc4ccc(OCc5ccccc5)cc4)C(=O)N4Cc5ccccc5C[C@H]4C(=O)N3C2)C1 [Example 78] (cyclo([Hyp]([CO-X3])[hPhe][dW][Ala(piperidin-4-yl)]Y(Bn)[Tic]))
OUT: 76.2

IN: Now consider O=C1N[C@@H](Cc2ccc(OCc3ccccc3)cc2)C(=O)N2Cc3ccccc3C[C@H]2C(=O)N2CCOC[C@H]2C(=O)N[C@@H](CCc2ccccc2)C(=O)N[C@H](Cc2c[nH]c3ccccc23)C(=O)N[C@H]1CC1CCNCC1 [Example 45] (cyclo([Tic][Morpholine(3S-CO)][hPhe][dW][Ala(piperidin-4-yl)]Y(Bn))) and answer again.
OUT: 100

IN: Let us now turn to COc1cccc2[nH]cc(C[C@H]3NC(=O)[C@H](c4ccccc4)NC(=O)[C@@H]4C[C@@H](OC(=O)NCCN)CN4C(=O)[C@H](Cc4ccccc4)NC(=O)[C@H](Cc4ccc(OCc5ccccc5)cc4)NC(=O)[C@H](CN4CCNCC4)NC3=O)c12 [Example 64] (cyclo(F[Hyp]([CO-Ethylenediamine])[Phg][dTrp(4-OMe)][Ala(piperazin-1-yl)]Y(Bn)))
OUT: 100

IN: // repeat for NCCNC(=O)O[C@@H]1C[C@H]2C(=O)N[C@@H](c3ccccc3)C(=O)N[C@H](Cc3c[nH]c4ccccc34)C(=O)N[C@@H](CC3CCNCC3)C(=O)N[C@@H](Cc3ccc(OCc4ccccc4)cc3)C(=O)N[C@@H](Cc3ccccc3)C(=O)N2C1 [Example 1] (cyclo(F[Hyp]([CO-Ethylenediamine])[Phg][dW][Ala(piperidin-4-yl)]Y(Bn))) and report
OUT: 62

IN: Follow-up entry: O=C1N[C@@H](CCc2ccccc2)C(=O)N[C@H](Cc2c[nH]c3ccccc23)C(=O)N[C@@H](CN2CCNCC2)C(=O)N[C@@H](Cc2ccc(OCc3ccccc3)cc2)C(=O)N2Cc3ccccc3C[C@H]2C(=O)N2CCNCC12 (some centres unmarked) [Example 65] (cyclo([Tic][X9][hPhe][dW][Ala(piperazin-1-yl)]Y(Bn)))
OUT: 91.8
